- TARGET_UNDER_TEST: cannabinoid receptor 2 (CB2R) (Homo sapiens)
- Construct: SNAP-tagged human CB2R in HEK-293T cells
- Sequence (P34972 whole entry): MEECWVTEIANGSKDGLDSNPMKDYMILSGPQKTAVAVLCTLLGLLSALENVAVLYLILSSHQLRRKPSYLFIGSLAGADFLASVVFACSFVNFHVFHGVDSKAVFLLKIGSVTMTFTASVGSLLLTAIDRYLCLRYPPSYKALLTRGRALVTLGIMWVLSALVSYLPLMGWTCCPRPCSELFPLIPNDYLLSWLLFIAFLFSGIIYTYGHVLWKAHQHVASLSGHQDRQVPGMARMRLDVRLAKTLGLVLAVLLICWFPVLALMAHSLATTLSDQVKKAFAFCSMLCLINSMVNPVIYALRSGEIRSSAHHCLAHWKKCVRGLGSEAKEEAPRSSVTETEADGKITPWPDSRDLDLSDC
- TEST_NAME: HTRF competition binding against […] fluorophore-conjugated CM157 in HEK-293T cells; also cAMP and β-arrestin II recruitment
VALUE_TYPE: Ki (µM)
Number in µM, nothing else.

May I ask what Ki has been recorded for CCCC(C)(C)c1ccc2c(c1)OC(C)(C)[C@@H]1CC=C(C)C[C@@H]21 ?
0.018
